Where do the numbers come from? From paper PMC2756588.

Consider the following binders and their measured SPOT intensity readings.
- target: T1, Lsb1, P53281
- T1 sequence (P53281 45-122, looked up): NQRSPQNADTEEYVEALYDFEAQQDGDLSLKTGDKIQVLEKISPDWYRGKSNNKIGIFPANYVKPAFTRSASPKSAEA
- experiment.description: SPOT array
- recorded.conditions: median of control spots 388

# binder, SPOT intensity
records = [
    ("IVNKPLPPLPVAGSS", 0),
    ("NNFYRPLLRSVLVLL", 0),
    ("RFKRHRLEFPFNESE", 53),
    ("KKEKKPPKIPKKVYT", 0),
    ("NNQRRKPLLLNIGDH", 0),
    ("APERAVPILPPRNNV", 290),
    ("GQYRRTIVIPRRFFT", 19),
    ("MTKTPETSPPKRPMG", 3),
    ("YSRKKLPVVLSKMTL", 888),
    ("QTREPNEPPPPSPAM", 0),
    ("TSIEIPKRSPLRFTS", 0),
    ("PAPPPPPRASRPTPN", 0),
    ("NPLPKEPRLPKRKVA", 19),
    ("AVPPPPPPPPLPESL", 0),
    ("NRLRKRLNLPSEISI", 459),
]
